test system: SF-268 CNS; assay: NCI tumour cell line growth inhibition, 48 h
Each item that follows carries a reported TGI.

| compound | TGI |
| --- | --- |
| CC1(C)c2ccccc2N2C(c3ccccc3)=NOC21C (stereo not drawn) | > 100 µM |
| C[C@]12CC[C@H](O[C@@H]3O[C@H](CO[C@@H]4O[C@H](CO)[C@@H](O)[C@H](O)[C@H]4O)[C@@H](O)[C@H](O)[C@H]3O)C[C@@H]1CC[C@@H]1[C@@H]2CC[C@]2(C)[C@@H](C3=CC(=O)OC3)CC[C@]12O | 29.5 µM |
| Cc1ccccc1NC(=O)/C(=N\NC(N)=S)C(C#N)c1ccccc1 (stereo not drawn) | > 100 µM |
| COCn1cc(C2=C(C)C(=O)C(C)=C(C)C2=O)cn1 | 66 µM |
| CNc1cc([N+](=O)[O-])ccc1C(=O)N1CCC[C@H]1CO | > 100 µM |
| CC(=O)NS(=O)(=O)c1ccc(NCc2cccc3c(=O)c4ccc(Cl)cc4oc23)cc1 | > 100 µM |
| N#C/C(=C\c1cc(O)c(O)c(O)c1)C(N)=O | > 100 µM |
| COc1cccc(NC(=O)CSc2nnc(Cc3ccccc3)o2)c1 | > 100 µM |

---

Each item that follows carries a reported TGI.
system: OVCAR-3 ovarian; assay: NCI tumour cell line growth inhibition, 48 h
result_type: TGI

| molecule | result_type | reported_value |
| --- | --- | --- |
| CC(C)(C)[Si](C)(C)OCC1OC(n2cnc3c(=O)[nH]cnc32)CC1O (stereo not drawn) | TGI | > 100 µM |
| O=C(O)c1ccc2c(c1)C(=O)N(c1ccc(S(=O)(=O)c3ccc(N4C(=O)c5ccc(C(=O)O)cc5C4=O)cc3)cc1)C2=O | TGI | > 100 µM |
| Cc1[nH]c(C)c(CN(C)C)c1CN(C)C | TGI | > 100 µM |
| CCOc1cc(-c2nncn2C)ccc1Nc1ncc2cc(C)nc(NCC(C)(C)C)c2n1 | TGI | > 100 µM |
| C=C(Cl)/C(=C\Cl)CCC(Cl)C(C)C (stereo not drawn) (tested in a mixture with another compound) | TGI | 30.1 µM |
| CC1(C)C(N2CCOCC2)CS1(=O)=O (stereo not drawn) | TGI | > 10 µM |
| C=C1C(=O)O[C@H]2[C@H]1CC/C(COC(=O)c1cccnc1N)=C\CC[C@@]1(C)O[C@@H]21 | TGI | 2.88 µM |
| CC1=CC(=O)N(c2cccc3c(N4C(=O)C=C(C)C4=O)cccc23)C1=O | TGI | 5.9 µM |
| COc1ccc(Cc2cc(Cc3ccc(OC)cc3)cc(Cc3ccc(OC)cc3)c2)cc1 | TGI | > 100 µM |
| NCCCNc1nc2ccccc2c2c(=O)c3cc(F)ccc3sc12 | TGI | 3.25 µM |
| C[C@]12CC[C@H](O[C@@H]3O[C@H](CO[C@@H]4O[C@H](CO)[C@@H](O)[C@H](O)[C@H]4O)[C@@H](O)[C@H](O)[C@H]3O)C[C@@H]1CC[C@@H]1[C@@H]2CC[C@]2(C)[C@@H](C3=CC(=O)OC3)CC[C@]12O | TGI | > 74.1 µM |
| CN(c1ccccc1)c1cc2ccccc2nn1 | TGI | > 100 µM |
| COc1cc(S(=O)(=O)Nc2ccc(-c3csc(N4C(=O)C(C)SC4c4cccs4)n3)cc2)ccc1Cl (stereo not drawn) | TGI | > 100 µM |
| CC1OC(n2cc(C(F)(F)F)c(=O)[nH]c2=O)C=CC1=O (stereo not drawn) | TGI | 31.9 µM |
| COc1cccc(NC(=O)CSc2nnc(Cc3ccccc3)o2)c1 | TGI | > 100 µM |
| CN(C)NC(=O)/C(=C/c1ccc(Cl)cc1)NC(=O)c1ccccc1 | TGI | > 100 µM |
| COc1cc(OCc2ccccc2)c2c(CCC(=O)O)cc(=O)oc2c1 (tested in a mixture with another compound) | TGI | > 100 µM |
| Cc1cc(O)c2c(c1)C(=O)c1c(c(O)cc(O)c1-c1c(O)cc(O)c3c1C(=O)c1cc(C)cc(O)c1C3=O)C2=O | TGI | 21.6 µM |

---

system: SF-295 CNS; test: NCI tumour cell line growth inhibition, 48 h; in the data active = GI50 below about 0.43 µM; inactive = the rest
Outcomes: active, inactive

| compound | label_value |
| --- | --- |
| COc1cc(C(=O)/C=C/c2cc(-c3ccc4c(c3)OCO4)n[nH]2)cc(OC)c1OC | inactive |
| CCc1nc(C)cn1C(=O)OCc1nc2nc(Cl)nc(N3CCOCC3)c2[nH]1 | inactive |
| Cc1sc(C(=O)c2cncnc2N[C@@H]2C[C@H](COS(N)(=O)=O)[C@@H](O)C2)cc1[C@@H]1NCCc2ccc(Cl)cc21 | inactive |
| C=C1C(=O)O[C@H]2[C@H]1CC/C(COC(=O)c1cccnc1N)=C\CC[C@@]1(C)O[C@@H]21 | inactive |
| C=CCn1c2ccccc2c2c3c(c4c5ccccc5n(CC=C)c4c21)C(=O)N(O)C3=O | inactive |
| CN1CCC2(CC1)N=C(SCC(=O)Nc1cnc3ccccc3c1)C(c1ccc(Br)cc1)=N2 | inactive |
| CCCCC(=O)N(c1ccc(Nc2c3ccccc3nc3cc([N+](=O)[O-])ccc23)cc1)S(C)(=O)=O | inactive |
| Cc1nc2sc(C(=O)Nc3cccc(Br)c3C)c(N)c2cc1C(O)c1ccccc1 (centres undefined) | active |
| CC[C@H](C)[C@@H]([C@@H](CC(=O)N1CCC[C@H]1[C@H](OC)[C@@H](C)C(=O)NCCc1ccccc1)OC)N(C)C(=O)C(NC(=O)[C@H](C(C)C)N(C)C)C(C)C (some centres undefined) | active |

---

Each item that follows carries a reported TGI.
tested on: M19-MEL melanoma; assay: NCI tumour cell line growth inhibition, 48 h
Where a SMILES comes first, the peptide text is derived from it. [ ]: non-standard residue; d: D form. The star is where a group is joined. ξ: configuration not given here. ξNMeF = CNC(Cc1ccccc1)C(=O)O; NMeV = CN[C@H](C(=O)O)C(C)C; Boc = CC(C)(C)OC(=O)*; OBn = c1ccc(CO*)cc1

| molecule | TGI |
| --- | --- |
| CCOC(=O)C1=C(OC(OCC)C([Se]c2ccccc2)C(C)C)CCC1 (centres undefined) | 34.9 µM |
| CC(C)[C@@H](C(=O)N(C)[C@H](C(=O)N1CCC[C@H]1C(=O)OCc1ccccc1)C(C)C)N(C)C(=O)C(Cc1ccccc1)N(C)C(=O)[C@H](NC(=O)OC(C)(C)C)C(C)C (some centres undefined) (Boc-[dV][ξNMeF][NMeV][NMeV]P-OBn) | > 31.6 µM |
| O=C1c2ccccc2C(=O)N1CCCOCc1c[nH]c(=O)[nH]c1=O | > 100 µM |
| O=c1nc2sc3ccccc3c(=O)n2[nH]1 | > 100 µM |

---

Each item that follows carries a reported TGI.
tested on: SNB-78 CNS; assay: NCI tumour cell line growth inhibition, 48 h
result_type: TGI

| compound | reported_value |
| --- | --- |
| CNC(=O)C(C)Oc1ccc(OCC2CCCCC2)cc1 (stereo not drawn) | > 100 µM |
| Cc1ccccc1NC(=O)/C(=N\NC(N)=S)C(C#N)c1ccccc1 (stereo not drawn) | > 100 µM |
| COc1ccc2c(c1)CCc1c-2[nH]c2cc3c(cc2c1=O)OCO3 | > 100 µM |
| C/C=C(\N=C=S)C(=O)OC1C(COC(C)=O)OC([C@]2(O)CC(=O)C(=N)C(C(=O)O)=C2O)C(O)C1OC1CC(OC)C(O)([C@@H](C)OC(=O)[C@@H](C)CC)C(C)O1 (stereo partly drawn) | 26.4 µM |
| C/C=C/C(=O)Oc1cccc2cccnc12 | > 100 µM |
| Cc1cccc(NC(=O)C(=O)C(C2OC(=O)c3ccccc32)[N+](=O)[O-])c1C (stereo not drawn) | > 100 µM |
| C=C1C(=O)O[C@H](c2ccoc2)C[C@@H]1[C@@]1(C)CCCC2(C)C(=O)OCC21 (stereo partly drawn) | > 100 µM |
| CC(C)c1oc(=O)cc2c1C(O)C1OC(=O)C3(C)C(O)C4OC4C2(C)C13 (stereo not drawn) | 52 µM |
| Cc1ccc(Nc2cccc3c2C(=O)c2cccc(Nc4ccc(C)cc4S(=O)(=O)O)c2C3=O)c(S(=O)(=O)O)c1 | > 100 µM |
| CC1OC(n2cc(C(F)(F)F)c(=O)[nH]c2=O)C=CC1=O (stereo not drawn) | 31.5 µM |
| CCOC(=O)C1=C(C)NC(=O)NC1c1ccc(OC)cc1OC (stereo not drawn) | > 100 µM |
| CC1(C)C(=O)OC(n2cc(F)c(=O)[nH]c2=O)C1=O (stereo not drawn) | > 100 µM |
| O=C(O)CCC(NC(=O)c1ccc(Nc2cnc3cc(C(F)(F)F)ccc3n2)cc1)C(=O)O (stereo not drawn) | > 100 µM |
| ICC1CCCO1 (stereo not drawn) | > 100 µM |
| CCN(CC)CCNc1ccc2ncn3c4ccc(OC)cc4c(=O)c1c23 | 30.9 µM |
| O=C(NN1C(=O)CS(=O)(=O)C1c1ccc(Cl)c(Cl)c1)c1ccncc1 (stereo not drawn) | > 100 µM |
| CN(c1ccccc1)c1cc2ccccc2nn1 | > 100 µM |
| COc1cccc2c1C(=O)c1c(O)c3c(c(O)c1C2=O)C[C@@](O)(C(=O)CO)CC3OC1CC(N)C(OC2CCCCO2)C(C)O1 (stereo partly drawn) | 26.5 µM |
